# experiment: Differential scanning fluorimetry (DSF), apparent Tm of YggS forms
# Assay type: physicochemical
# cond: apo-form, 2 μM protein, no PLP
Items are presented alongside their recorded T m (°C) Apo.
value type: T m (°C) Apo

molecule	value type	unit annotation	observed result
K36A/K38A/K233A/K234A: E. coli YggS triple lysine variant (protein, left off: His-tag, C-terminal, state not stated, E. coli YggS triple lysine variant) MNDIAHNLAQVRDKISAAATRCGRSPEEITLLAVSATAPASAIAEAIDAGQRQFGENYVQEGVDKIRHFQELGVTGLEWHFIGPLQSNKSRLVAEHFDWCHTIDRLRIATRLNDQRPAELPPLNVLIQINISDENSKSGIQLAELDELAAAVAELPRLRLRGLMAIPAPESEYVRQFEVARQMAVAFAGLKTRYPHIDTLSLGMSDDMEAAIAAGSTMVRIGTAIFGARDYSAA	T m (°C) Apo	°C	68.8
K36A/K38A/K137A/K233A/K234A: E. coli YggS quadruple lysine variant (protein, left off: His-tag, C-terminal, state not stated, E. coli YggS quadruple lysine variant) MNDIAHNLAQVRDKISAAATRCGRSPEEITLLAVSATAPASAIAEAIDAGQRQFGENYVQEGVDKIRHFQELGVTGLEWHFIGPLQSNKSRLVAEHFDWCHTIDRLRIATRLNDQRPAELPPLNVLIQINISDENSASGIQLAELDELAAAVAELPRLRLRGLMAIPAPESEYVRQFEVARQMAVAFAGLKTRYPHIDTLSLGMSDDMEAAIAAGSTMVRIGTAIFGARDYSAA	T m (°C) Apo	°C	68.7
K36A/K38A/K137A: E. coli YggS triple lysine variant (protein, left off: His-tag, C-terminal, state not stated, E. coli YggS triple lysine variant) MNDIAHNLAQVRDKISAAATRCGRSPEEITLLAVSATAPASAIAEAIDAGQRQFGENYVQEGVDKIRHFQELGVTGLEWHFIGPLQSNKSRLVAEHFDWCHTIDRLRIATRLNDQRPAELPPLNVLIQINISDENSASGIQLAELDELAAAVAELPRLRLRGLMAIPAPESEYVRQFEVARQMAVAFAGLKTRYPHIDTLSLGMSDDMEAAIAAGSTMVRIGTAIFGARDYSKK	T m (°C) Apo	°C	68.9
K36A/K137A/K233A/K234A: E. coli YggS triple lysine variant (protein, left off: His-tag, C-terminal, state not stated, E. coli YggS triple lysine variant) MNDIAHNLAQVRDKISAAATRCGRSPEEITLLAVSATKPASAIAEAIDAGQRQFGENYVQEGVDKIRHFQELGVTGLEWHFIGPLQSNKSRLVAEHFDWCHTIDRLRIATRLNDQRPAELPPLNVLIQINISDENSASGIQLAELDELAAAVAELPRLRLRGLMAIPAPESEYVRQFEVARQMAVAFAGLKTRYPHIDTLSLGMSDDMEAAIAAGSTMVRIGTAIFGARDYSAA	T m (°C) Apo	°C	64.6

Attribution: paper PMC9601805
